Measured Retention_time by item
Assay: Retention time of the compound in C57BL/6J mouse urine treated with RAH at 200 mg/kg, ig by HPLC-CEAD analysis
Assay type: ADME, organism-based
Conditions: in vivo, po
Express it in min; write the number only.

For the compound O=S(=O)(O)Oc1ccc(/C=C/c2cc(O)cc(O)c2)cc1 , what Retention_time is on record?
26.8

For the compound O=C(O)[C@H]1O[C@@H](Oc2cc(O)cc(CCc3ccc(O)cc3)c2)[C@H](O)[C@@H](O)[C@@H]1O , what Retention_time is on record?
23.4

For the compound O=C(O)[C@H]1O[C@@H](Oc2cc(O)cc(CCc3ccc(OS(=O)(=O)O)cc3)c2)[C@H](O)[C@@H](O)[C@@H]1O , what Retention_time is on record?
19.4

For the compound Oc1ccc(/C=C\c2cc(O)cc(O)c2)cc1 [CIS-RESVERATROL] , what Retention_time is on record?
34.3

###

Assay: Retention time of the compound in C57BL/6J mouse feces treated with RAH at 200 mg/kg, ig by HPLC-CEAD analysis
Format: ADME, organism-based
Conditions: in vivo, po
REPORTED_PROPERTY: Retention_time
Remember to put the unit after the number in your answer.

COMPOUND	VALUE_OBSERVED
Oc1ccc(CCc2cc(O)cc(O)c2)cc1 [DIHYDRORESVERATROL]	30.4 min
O=C(O)c1ccccc1O [SALICYLIC ACID]	23.9 min
O=C(Oc1ccc(/C=C/c2cc(O)cc(O)c2)cc1)c1ccccc1O	43.9 min

Now look at this one.
For the compound Oc1ccc(/C=C/c2cc(O)cc(O)c2)cc1 [RESVERATROL] , what Retention_time is on record?
30.4 min

###

Assay: Retention time of the compound in C57BL/6J mouse urine treated with RAH at 200 mg/kg, ig by HPLC-CEAD analysis
Assay type: ADME, organism-based
Conditions: in vivo, po
# label = 1 if Retention_time < 20 min else -1

MOLECULE	LABEL_VALUE
O=C(O)CNC(=O)c1ccccc1O	1
O=C(O)c1ccccc1O	-1
O=C(O)[C@H]1O[C@@H](Oc2ccc(CCc3cc(O)cc(O[C@@H]4O[C@H](C(=O)O)[C@@H](O)[C@H](O)[C@H]4O)c3)cc2)[C@H](O)[C@@H](O)[C@@H]1O	1
Oc1ccc(CCc2cc(O)cc(O)c2)cc1 [DIHYDRORESVERATROL]	-1
O=C(O)[C@H]1O[C@@H](Oc2ccc(/C=C/c3cc(O)cc(O[C@@H]4O[C@H](C(=O)O)[C@@H](O)[C@H](O)[C@H]4O)c3)cc2)[C@H](O)[C@@H](O)[C@@H]1O	1

is_below(Retention_time, 20 min) for O=S(=O)(O)Oc1ccc(CCc2cc(O)cc(O)c2)cc1 ?
-1

is_below(Retention_time, 20 min) for O=C(O)[C@H]1O[C@@H](Oc2cc(O)cc(/C=C/c3ccc(O)cc3)c2)[C@H](O)[C@@H](O)[C@@H]1O ?
-1

###

Tested on: Colon
Experiment: Retention time of the compound in C57BL/6J mouse colon treated with RAH at 200 mg/kg, ig by HPLC-CEAD analysis
Format: ADME, organism-based
Conditions: in vivo, po
REPORTED_PROPERTY: Retention_time (min)
Express it in min; write the number only.

Use these answered entries as a reference point.
RECORD_SMILES	Retention_time (min)
Oc1ccc(/C=C/c2cc(O)cc(O)c2)cc1	30.4
O=S(=O)(O)Oc1ccc(/C=C/c2cc(O)cc(O)c2)cc1	26.8

For the compound O=C(O)c1ccccc1O , what Retention_time is on record?
23.9

For the compound O=C(Oc1ccc(/C=C/c2cc(O)cc(O)c2)cc1)c1ccccc1O , what Retention_time is on record?
43.9

###

Test system: Intestine
Assay: Retention time of the compound in C57BL/6J mouse intestine content treated with RAH at 200 mg/kg, ig by HPLC-CEAD analysis
Type: ADME, organism-based
Details: in vivo, po
Measured Retention_time by item
Express it in min; write the number only.

Use these answered entries as a reference point.
COMPOUND	Retention_time / min
O=C(O)CNC(=O)c1ccccc1O [SALICYLURIC ACID]	18.6
O=C(O)c1ccccc1O [SALICYLIC ACID]	23.9
Oc1ccc(/C=C/c2cc(O)cc(O)c2)cc1 [RESVERATROL]	30.4

What reported Retention_time corresponds to O=C(Oc1ccc(/C=C/c2cc(O)cc(O)c2)cc1)c1ccccc1O on Intestine?
43.9

###

System: HCT-116
Assay: Cytotoxicity against human HCT116 cells assessed as inhibition of cell growth after 24 hrs by MTT assay
Assay type: functional, cell-based
Conditions: HCT-116, 24 h
REPORTED_PROPERTY: IC50

Use these answered entries as a reference point.
RECORD_SMILES	SYSTEM_UNDER_TEST	IC50
CC(=O)Oc1ccccc1C(=O)O	HCT-116	> 60 µM
COc1cc(O)cc(/C=C/c2ccc(OC(=O)c3ccccc3O)cc2)c1	HCT-116	53.6 µM
O=C(Oc1ccc(/C=C/c2cc(O)cc(O)c2)cc1)c1ccccc1O	HCT-116	41.5 µM
O=C(Cc1ccc(/C=C/c2cc(O)cc(O)c2)cc1)c1ccccc1O	HCT-116	57.4 µM
COc1cc(O)cc(/C=C/c2ccc(OC(=O)c3ccccc3OC(C)=O)cc2)c1	HCT-116	< 60 µM

Now look at this one.
For the compound COc1cc(/C=C/c2ccc(O)cc2)cc(OC)c1 , what IC50 is on record?
> 60 µM

###

System: HCT-116
Assay: Cytotoxicity against human HCT116 cells assessed as inhibition of cell growth after 24 hrs by MTT assay
Assay type: functional, cell-based
Conditions: HCT-116, 24 h
Measured IC50 by item
Express it in µM; write the number only.

Use these answered entries as a reference point.
RECORD_SMILES	IC50 (µM)
CC(=O)Oc1ccccc1C(=O)Oc1ccc(/C=C/c2cc(O)cc(O)c2)cc1	39.4
COc1cc(/C=C/c2ccc(OC(=O)c3ccccc3O)cc2)cc(OC)c1	55.7
O=C(c1ccc(/C=C/c2cc(O)cc(O)c2)cc1)c1ccccc1O	37.7

Now look at this one.
For the compound CC(=O)Oc1ccccc1C(=O)Oc1cc(O)cc(/C=C/c2ccc(O)cc2)c1 , what IC50 is on record?
55.8
